# Tested on: Giardia intestinalis trophozoites
# ASSAY OVERVIEW: Drug susceptibility of Giardia trophozoites, ATP level by luminescence (BacTiter-Glo), 48 h incubation, anaerobic or microaerobic
# Format: cell-based, Giardia intestinalis strain WB clone C6
# EXPERIMENTAL SETUP: Giardia duodenalis, 48 h, microaerobic conditions (~5% O2, Anaerocult C), 48 h, 37 °C, ATP level; read-out: Giardia (microaerobiosis) IC50
ENDPOINT: IC50

Quick note, IC50 for "COc1ccc(C(=O)/C=C/c2cc3ccccc3n(Cc3cn(-c4ccc(Cl)cc4)nn3)c2=O)cc1" landed at ≥ 30 µM

Reported IC50 for Cc1ncc([N+](=O)[O-])n1CCO [MTZ, metronidazole, reference compound] was ≥ 25 µM

"COc1ccc(-n2cc(Cn3c(=O)c(/C=C/C(=O)c4ccccc4F)cc4ccccc43)nn2)cc1" has a reported IC50 of ≥ 20 µM
